From: paper PMC7129073

# Test system: Streptococcus agalactiae strains P0162 and P0425
# Protocol summary: Microdilution
# Type: cell-based
# Setup conditions: strain P0425 (ParC Ser79Phe, GyrA Glu85Lys)
# maps each entry to its MIC

Sample records with MIC:
compound="C[C@H]1COc2c(N3CCN(C)CC3)c(F)cc3c(=O)c(C(=O)O)cn1c23 [levofloxacin]" system_name="Streptococcus agalactiae strains P0162 and P0425" result="> 32 µg/mL"
compound="CCn1cc(C(=O)O)c(=O)c2cc(F)c(N3CCNCC3)cc21 [norfloxacin]" system_name="Streptococcus agalactiae strains P0162 and P0425" result="> 256 µg/mL"

# evaluate next
Ask | Which MIC reading was recorded for the compound C[C@@H]1CN(c2c(F)c(N)c3c(=O)c(C(=O)O)cn(C4CC4)c3c2F)C[C@H](C)N1 [sparfloxacin] ?
Reply | > 32 µg/mL
